- tgt: T1, tubby-N (N-terminus of mouse tubby, 1M-242P), GST-free (mouse, UniProt P50586 1-242)
- T1 construct: range 1-242; Expressed as GST-tubby-N in E. coli BL21(DE3), GST removed by 3C protease cleavage; also called GST-free tubby-N
- T1 sequence (looked up): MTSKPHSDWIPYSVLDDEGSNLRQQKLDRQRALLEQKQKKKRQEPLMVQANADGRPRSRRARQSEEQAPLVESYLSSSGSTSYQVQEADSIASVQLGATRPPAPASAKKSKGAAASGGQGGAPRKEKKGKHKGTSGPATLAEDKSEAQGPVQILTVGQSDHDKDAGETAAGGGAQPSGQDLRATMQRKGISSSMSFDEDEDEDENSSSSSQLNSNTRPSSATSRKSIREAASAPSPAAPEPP
- measurement_notes: clonal phage on immobilized tubby-N, plaque assay
observation_type: Binding to tubby-N (binding specificity of clonal phage vs. control phage)

Before answering, review these 5 worked examples.
Looking for the measured Binding to tubby-N (binding specificity of clonal phage vs. control phage) of PC4 and SFRS1 interacting protein 1 (Psip1) 152K-219K, phage clone (other, mouse, UniProt Q99JF8 152-219, looked up, range 152-219; Minimal overlap of 4 independent clones; For Y2H recloned into pGAD424) KAEKQVDTEEAGMVTAATASNVKASPKRGRPAATEVKIPKPRGRPKVVKQPCPSDGDMVIDEDKSKKK , can you help?
~196 X (fold)

What do we get for High mobility group box 2 (Hmgb2) 89K-188E, phage clone (other, mouse, UniProt P30681 89-188, looked up, range 89-188; Minimal overlap of 5 independent clones; For Y2H recloned into pGAD424) KKDPNAPKRPPSAFFLFCSENRPKIKIEHPGLSIGDTAKKLGEMWSEQSAKDKQPYEQKAAKLKEKYEKDIAAYRAKGKSEAGKKGPGRPTGSKKKNEPE ?
~312 X (fold)

// same read-out, input: ATP-binding cassette F1 (Abcf1) 57K-196G, phage clone (other, mouse, UniProt Q6P542 57-196, looked up, Minimal overlap of 2 independent clones; For Y2H recloned into pGAD424) KLQKEKEQQQQQQQQKKKRDTRKGRRKKDVDDDSDERVLMERLKQLSVPASDEEDEVPAPIPRGRKKAKGGNVFEALIQDDSEEEEEEEENRVLKPAKPEKNRINKAVAEEPPGLRSKKGKEEKSKGKAKSKPAAADSEG
~68.2 X (fold)

Can you check Zinc finger E-box binding homeobox 1 (Zeb1) 903E-1021E, phage clone (other, mouse, UniProt Q64318 903-1021, looked up, range 903-1021; Residues are the minimal overlap of 2 independent clones; For Y2H the insert was recloned into pGAD424) EHTGKRPHECGICRKAFKHKHHLIEHMRLHSGEKPYQCDKCGKRFSHSGSYSQHMNHRYSYCKRGAEDRDAMEQEDAGPEVLPEVLATEHVGARASPSQADSDERESLTREEDEDSEKE next?
~284 X (fold)

Same for Structure specific recognition protein 1 (Ssrp1) 486E-619G, phage clone (other, mouse, UniProt Q08943 486-619, looked up, range 486-619; Minimal overlap of 2 independent clones; For Y2H recloned into pGAD424) EEEEDVAEEFDSNASASSSSNEGDSDREEKKREQLKRAKMAKDRKSRRKSSEAKKGKDPNAPKRPMSAYMLWLNASREKIKSDHPGISITDLSKKAGEIWKGMSKEKKEEWDRKAEDARREYEKAMKEYEGGRG
~157 X (fold)

Here's the next entry for you.
Please report the recorded Binding to tubby-N (binding specificity of clonal phage vs. control phage) for IQ motif containing GTPase activating protein 2 (Iqgap2) 1232E-1368E, phage clone (other, mouse, UniProt Q3UQ44 1232-1368, looked up, range 1232-1368) EKSDLLNELLESLGEVPTVESFLGEGAVDPNDPNKENTLNQLSKTEISLSLTSKYDVKDGEAVDGRSLMIKTKKLIIDVTRNQPGSTLTEILETPATGQQELEHAKDMESRAVVDSRTPEEGKQSQAVIEDARLPLE .
~53.2 X (fold)

Hey, just so you know, these numbers are from patent US20110207628A1.
